ASSAY_TARGET: GIP receptor (Homo sapiens, UniProt P48546)
Construct: expressed in transfected cells; host or cells: HEK293
Sequence (P48546 22-466): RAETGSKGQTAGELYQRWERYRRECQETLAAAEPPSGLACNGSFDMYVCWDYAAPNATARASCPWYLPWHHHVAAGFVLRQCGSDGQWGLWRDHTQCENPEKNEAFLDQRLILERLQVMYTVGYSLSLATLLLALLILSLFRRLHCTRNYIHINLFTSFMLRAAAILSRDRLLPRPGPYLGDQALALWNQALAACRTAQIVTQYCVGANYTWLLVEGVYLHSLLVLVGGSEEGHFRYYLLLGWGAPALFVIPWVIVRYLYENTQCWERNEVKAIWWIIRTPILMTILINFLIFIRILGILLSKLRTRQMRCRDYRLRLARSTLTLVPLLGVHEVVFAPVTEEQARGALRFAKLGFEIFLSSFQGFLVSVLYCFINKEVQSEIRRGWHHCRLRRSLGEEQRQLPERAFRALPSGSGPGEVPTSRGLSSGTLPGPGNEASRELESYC
PROCEDURE_DETAILS: Functional assay-cAMP synthesis, luciferase reporter in HEK293 cells, GIP receptor
Assay type: cell-based
ASSAY_CONDITIONS: read-out: GIP Receptor EC50; cAMP induction, in vitro, as in Example 14
pEC50: −log10 of the molar value. Non-standard residues stand in square brackets, D forms with d. No end group written: not given here. *: point of attachment. Myristoyl = CCCCCCCCCCCCCC(=O)*; Aib = CC(C)(N)C(=O)O
Entries and their pEC50 values follow.
READOUT_LABEL: pEC50

# SUBSTANCE, ASSAY_TARGET, ENDPOINT_VALUE
measured = [
    ("mt-349 (H[Aib]QGTFTSDYSKYLDEQAAKEFIC(PEG 40 kDa)WLMNGGPSSGAPPPSK(Myristoyl)-NH2; also: acylated with a C14 fatty acyl group, site not given here)", "GIP receptor (Homo sapiens, UniProt P48546)", 8.70),
    ("mt-351: pegylated glucagon peptide of Table 34 (H[Aib]QGTFTSDYSKYLD[Aib]QAAKEFIC(PEG 40 kDa)WLMNGGPSSGAPPPSK(Myristoyl)-NH2; also: acylated with a C14 fatty acyl group, site not given here)", "GIP receptor (Homo sapiens, UniProt P48546)", 8.38),
    ("mt-352: pegylated glucagon peptide of Table 34 (H[Aib]QGTFTSDYSKYLD[Aib]QAAKEFIC(PEG 40 kDa)WLMNGGPSSGAPPPSK-NH2)", "GIP receptor (Homo sapiens, UniProt P48546)", 7.29),
]
